- Tested on: MDA-N
- protocol details: NCI tumour cell line growth inhibition, 48 h
Exercise: state measured TGI for each of the molecules provided.

{"columns": ["molecule", "metric name", "assay value"],
 "data": [
  ["O=C(/C=C/C=C/c1ccccc1)CCc1ccccc1", "TGI", "> 100 µM"]
]}

Working through the 3 molecules below one at a time, give TGI for each.
1. O=C1C(Cl)=C(Oc2ccc([N+](=O)[O-])cc2)C(=O)c2c(O)ccc(O)c21
2. COc1ccccc1C1=C2C(=O)N(C)C(c3ccccc3OC)=C2C(=O)N1C
3. OC12C3C4CC5C(C4[C@@H]1Br)C2[C@@](O)(c1c(F)c(F)c(F)c(F)c1F)C53 (stereo partly specified)

Output line:
1. > 31.6 µM
2. > 100 µM
3. > 100 µM

Working through the 4 molecules below one at a time, give TGI for each.
1. CC1(C)COCN1COC1CCCCC1
2. C/C=C1\CN2CCC34c5ccccc5N(C)C35OCC4(C(=O)OC)C1CC25 (stereo unspecified)
3. CCn1nc(-c2ccccc2)c2c1N(C)c1ccccc1-n1c(-c3ccccc3)nnc1-2
4. COc1ccc(C[C@H]2NC(=O)/C=C/C[C@@H]([C@H](C)[C@H]3O[C@@H]3c3ccccc3)OC(=O)[C@H](CC(C)C)OC(=O)[C@H](C)CNC2=O)cc1

Output line:
["> 100 µM", "> 100 µM", "28.9 µM", "2.32e-05 µM"]

Working through the 7 molecules below one at a time, give TGI for each.
1. Cc1ccc(C(=O)Cc2nc3ncccc3[nH]c2=O)cc1
2. COc1ccc2c(c1)c(=O)c1c(NCCCN(C)CCCNc3ccc4c(=O)n(CCN(C)C)c(=O)n5c6ccc(OC)cc6c(=O)c3c45)ccc3c(=O)n(CCN(C)C)c(=O)n2c31
3. CSc1nc2c(c(=O)n1C)N=C(c1ccc(Cl)cc1)CC(c1ccccc1)N2 (stereo unspecified)
4. c1nncn1C12C3C4C5C3C1C5C42 (stereo unspecified)
5. N#Cc1ccccc1NC(=O)/C(=N\NC(=O)c1ccncc1)C(c1cnc2ccc([N+](=O)[O-])cc2n1)[N+](=O)[O-] (stereo unspecified)
6. NNC(=Nc1ccccc1)SCc1ccccc1
7. CC1(C)CC(=O)C2=C(C1)NC(SCC(=O)O)=C(C#N)C2c1ccc(Br)cc1 (stereo unspecified)

Output line:
> 100 µM
1.49 µM
30.3 µM
> 100 µM
> 100 µM
> 100 µM
> 100 µM

This collection of values is drawn from PubChem BioAssay (NCI).
